- assay target: T1, human GPVI extracellular region-human Fc fusion protein (hGPVI-hFc) (human)
- T1 construct: expressed in COS-1, Protein A purified; also called GPVI-HHH-hFc; hGPVIHHH-hFc
- T1 sequence (chain, as listed by the source limits assumed): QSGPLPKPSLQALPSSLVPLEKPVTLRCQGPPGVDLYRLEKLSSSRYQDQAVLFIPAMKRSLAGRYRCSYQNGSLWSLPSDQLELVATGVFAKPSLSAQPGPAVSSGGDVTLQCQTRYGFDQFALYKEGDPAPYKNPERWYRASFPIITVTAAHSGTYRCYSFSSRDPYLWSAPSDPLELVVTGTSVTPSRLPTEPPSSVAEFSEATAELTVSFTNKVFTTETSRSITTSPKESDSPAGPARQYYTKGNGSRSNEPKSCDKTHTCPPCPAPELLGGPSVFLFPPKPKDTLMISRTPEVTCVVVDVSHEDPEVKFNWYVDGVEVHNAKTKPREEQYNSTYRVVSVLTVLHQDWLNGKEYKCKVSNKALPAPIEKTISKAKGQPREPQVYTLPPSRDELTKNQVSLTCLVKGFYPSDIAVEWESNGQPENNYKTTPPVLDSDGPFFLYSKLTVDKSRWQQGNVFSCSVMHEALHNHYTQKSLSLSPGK
- assay info: SPR (BIACORE3000), GPVI-hFc coupled to CM5 chip, antibody 1.25-40 nM, bivalent analyte fit
pKd: −log10 of the molar value.
assay metric: pKd

[[record]]
binder = "F1232-24-1 (antibody, V domains shown, mouse monoclonal antibody from hybridoma) VH: VQLQQSGAELVRPGVSVKISCKGSGYTFTDYAMHWVKQSHAKSLEWIGVISTYYGDASYNQKFKGKATMTVDKSSSTAYMELARLTSEDSAIYYCARSYDYDPWFAYWGQGTLVTVSA VL: DIVLTQSPASLAVSLGQRATISCRASESVDNYGISFMHWYQQKPGQPPKLLIYRASNLESGIPARFSGSGSRTDFTLTINPVETDDVATYYCQQSNKDPLTFGAGTKLELKR"
observed_value = 9.60

